System: Saccharomyces cerevisiae
protocol_details: Inhibition of Saccharomyces cerevisiae alpha-glucosidase at 80 uM using 4-nitrophenyl D-glucopyranoside as substrate after 3 mins by UV/Vis spectrophotometric method relative to control
Listing: inhibition of selected molecules
Write down the numeric answer in % and omit the unit.

molecule | value_unit | inhibition
OC[C@H]1C[C@H](O)[C@@H](O)[C@@H](O)[C@H]1CO | % | 31
OC[C@H]1C[C@@H](O)[C@H](O)[C@H](O)[C@H]1CO | % | 21.4
OC[C@H]1C[C@H](O)[C@H](O)[C@H](O)[C@H]1CO | % | 20

Note: attention shifts to another entry.
[Q] Recorded inhibition of C[C@H]1O[C@H](O[C@H]2[C@H](O)[C@@H](O)[C@@H](O[C@H]3[C@H](O)[C@@H](O)C(O)O[C@@H]3CO)O[C@@H]2CO)[C@H](O)[C@@H](O)[C@@H]1N[C@H]1C=C(CO)[C@@H](O)[C@H](O)[C@H]1O (some centres undefined) [ACARBOSE] , please.
[A] 60

---

Tested on: Prunus dulcis
protocol_details: Inhibition of almond beta-glucosidase at 20 uM using p-nitrophenyl D-glucopyranoside as substrate after 3 mins by UV/Vis spectrophotometric method relative to control
quantity_kind: inhibition
Mention the unit after the number when you answer.

Previously resolved entries follow.
compound | inhibition
OC[C@H]1C[C@H](O)[C@H](O)[C@H](O)[C@H]1CO | 20.4%
C[C@H]1O[C@H](O[C@H]2[C@H](O)[C@@H](O)[C@@H](O[C@H]3[C@H](O)[C@@H](O)C(O)O[C@@H]3CO)O[C@@H]2CO)[C@H](O)[C@@H](O)[C@@H]1N[C@H]1C=C(CO)[C@@H](O)[C@H](O)[C@H]1O (some centres undefined) | 25%
OC[C@H]1C[C@@H](O)[C@H](O)[C@H](O)[C@H]1CO | 27.8%

Note: attention shifts to another entry.
[Q] Recorded inhibition of OC[C@H]1C[C@H](O)[C@@H](O)[C@@H](O)[C@H]1CO , please.
[A] 4.98%

---

Tested on: Saccharomyces cerevisiae
protocol_details: Inhibition of Saccharomyces cerevisiae alpha-glucosidase at 45 uM using 4-nitrophenyl D-glucopyranoside as substrate after 3 mins by UV/Vis spectrophotometric method relative to control
Listing: inhibition of selected compounds
Write down the numeric answer in % and omit the unit.

compound | value_unit | inhibition
OC[C@H]1C[C@H](O)[C@@H](O)[C@@H](O)[C@H]1CO | % | 21

[Q] Write down the reported inhibition of OC[C@H]1C[C@@H](O)[C@H](O)[C@H](O)[C@H]1CO , test system: Saccharomyces cerevisiae.
[A] 19.9

[Q] Write down the reported inhibition of C[C@H]1O[C@H](O[C@H]2[C@H](O)[C@@H](O)[C@@H](O[C@H]3[C@H](O)[C@@H](O)C(O)O[C@@H]3CO)O[C@@H]2CO)[C@H](O)[C@@H](O)[C@@H]1N[C@H]1C=C(CO)[C@@H](O)[C@H](O)[C@H]1O (some centres undefined) , test system: Saccharomyces cerevisiae.
[A] 46

[Q] Write down the reported inhibition of OC[C@H]1C[C@H](O)[C@H](O)[C@H](O)[C@H]1CO , test system: Saccharomyces cerevisiae.
[A] 19

---

Listing: inhibition of selected compounds
Tested on: Saccharomyces cerevisiae
protocol_details: Inhibition of Saccharomyces cerevisiae alpha-glucosidase at 120 uM using 4-nitrophenyl D-glucopyranoside as substrate after 3 mins by UV/Vis spectrophotometric method relative to control
Write down the numeric answer in % and omit the unit.

Previously resolved entries follow.
compound | target_under_test | inhibition / %
C[C@H]1O[C@H](O[C@H]2[C@H](O)[C@@H](O)[C@@H](O[C@H]3[C@H](O)[C@@H](O)C(O)O[C@@H]3CO)O[C@@H]2CO)[C@H](O)[C@@H](O)[C@@H]1N[C@H]1C=C(CO)[C@@H](O)[C@H](O)[C@H]1O (some centres undefined) | Saccharomyces cerevisiae | 63
OC[C@H]1C[C@@H](O)[C@H](O)[C@H](O)[C@H]1CO | Saccharomyces cerevisiae | 37.6
OC[C@H]1C[C@H](O)[C@@H](O)[C@@H](O)[C@H]1CO | Saccharomyces cerevisiae | 40

Note: attention shifts to another entry.
[Q] Recorded inhibition of OC[C@H]1C[C@H](O)[C@H](O)[C@H](O)[C@H]1CO , please.
[A] 22
